- Test system: LIMK1
- Test settings: concentration: 1 μM, replicates: in singlicate; n = 1
Entry flag: Condition met if %Inh reaches 2%; Condition not met if it does not.

{"Compound": "CS(=O)(=O)CCNCc1nc(-c2ccc3ncnc(Nc4ccc5c(cnn5Cc5ccccc5)c4)c3c2)cs1.Cl.Cl [GW569716]", "Assigned label": "Condition not met"}
{"Compound": "Cc1cnc(N)c(/C=C/c2cncc(C(=O)NCCc3ccc(Cl)cc3Cl)c2)c1.Cl [GSK190937]", "Assigned label": "Condition not met"}
{"Compound": "COc1ccc(CSc2nnc(-c3ccc4c(c3)CCO4)o2)cc1", "Assigned label": "Condition not met"}
{"Compound": "COc1ccc(-c2coc3ccc(-c4nnc(C)o4)cc23)cc1", "Assigned label": "Condition not met"}
{"Compound": "NS(=O)(=O)c1cccc(N/C=C2\\C(=O)Nc3ccc(S(=O)(=O)Cc4c(Cl)cccc4Cl)cc32)c1 [GSK398099]", "Assigned label": "Condition met"}
{"Compound": "Cc1ccccc1Cn1ccn2c(=O)cc(N3CCOCC3)nc12 [GSK2269905]", "Assigned label": "Condition met"}

Q: Dear colleague, could you confirm whether `CN1c2ccc(-c3ccc(C(N)=O)cc3)cc2-c2[nH]ncc2S1(=O)=O` has %Inh at or above 2%?
Result: Condition not met

Q: Dear colleague, could you confirm whether O=c1cc(N2CCOCC2)nc2n(Cc3ccccc3F)ccn12 [GSK2297428] has %Inh at or above 2%?
Result: Condition not met

Q: Dear colleague, could you confirm whether CC(C)c1cc(-c2ccc3c(N)n[nH]c3c2)nc(N)n1 [GSK2250882] has %Inh at or above 2%?
Result: Condition not met

Q: Dear colleague, could you confirm whether `CNCc1ccc2nc(NC(=O)c3ccc(C(C)(C)C)cc3)cn2c1` has %Inh at or above 2%?
Result: Condition met

Q: Dear colleague, could you confirm whether COc1nccc(-c2c(-c3ccc(F)cc3)ncn2CCCN2CCOCC2)n1 [SB-282852] has %Inh at or above 2%?
Result: Condition not met

Q: Dear colleague, could you confirm whether Nc1cccc(-c2ccc3c(N)n[nH]c3c2)n1 [GSK2192730] has %Inh at or above 2%?
Result: Condition not met

Q: Dear colleague, could you confirm whether Fc1ccc(-c2nc[nH]c2-c2ccncc2)cc1 [SB-217360] has %Inh at or above 2%?
Result: Condition not met

###

- System: JAK1(JH2domain-pseudokinase)
- Test settings: concentration: 1 μM, replicates: in singlicate; n = 1
We begin with a simple list: items and their reported %Inh.
Number only, in %; omit the unit.

Here's what some known entries look like.
{"Compound": "O=C1NC(=O)C(c2ccc(Cl)cc2)=C1Nc1cccc(Cl)c1", "Readout label": "%Inh", "Recorded result": 0}
{"Compound": "COC(=O)c1cccc(NC(=O)NC2CCN(c3ccnc(Nc4ccc(OC)cc4)n3)C2)c1 (centres unmarked)", "Readout label": "%Inh", "Recorded result": 0}
{"Compound": "COc1ccc(Nc2nccc(N3CCC(NC(=O)C(C)c4ccc(Cl)cc4)CC3)n2)cc1 (centres unmarked)", "Readout label": "%Inh", "Recorded result": 6}
{"Compound": "O=C1NC(=O)C(c2ccc(Cl)cc2)=C1Nc1ccc(O)cc1", "Readout label": "%Inh", "Recorded result": 0}

Please look at the following compound next.
Hey, JAK1(JH2domain-pseudokinase) data for `O=C(Nc1n[nH]c2nc(-c3cccs3)c(Br)cc12)C1CCCC1` : %Inh came out at 0

###

- Test system: TAOK3
- Test settings: concentration: 1 μM, replicates: in singlicate; n = 1
Readout label: %Inh
Returns: string containing the number followed by the unit.

{"Smiles notation": "Cc1nccc(-c2c(-c3ccc(F)cc3)ncn2CCCN2CCOCC2)n1.Cl", "%Inh": "0%"}
{"Smiles notation": "O=C1NC(=O)C(c2ccc(Cl)cc2)=C1Nc1cccc(Cl)c1", "%Inh": "15%"}

# %Inh of `COc1nccc(-c2c(-c3ccc(F)cc3)ncn2CCCN2CCOCC2)n1` = 0%

# %Inh of `CNc1nc(-c2ccc3c(N)n[nH]c3c2)cc(N2C[C@@H](C(=O)NC3CCCCC3)OC[C@H]2C)n1` = 0%

# %Inh of `COc1cc2ncnc(Nc3cccc(Br)c3)c2cc1OC.Cl` = 0%

###

- Tested on: CAMK1D;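 also: kd values determined as follow-up on hits from a single-replicate KINOMEscan panel screen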
pKd: −log10 of the molar value.
Readout label: pKd

# pKd of `O=C1NC(=O)C(c2ccc(Cl)cc2)=C1Nc1ccc(O)cc1` = < 5.00

###

- Tested on: CAMK1B
- Test settings: concentration: 1 μM, replicates: in singlicate; n = 1
Readout label: %Inh (%)
Number only, in %; omit the unit.

{"Molecule": "CN1c2ccc(-c3ccc(C(N)=O)cc3)cc2-c2[nH]ncc2S1(=O)=O", "Units symbol": "%", "Recorded result": 32}
{"Molecule": "O=c1cc(N2CCOCC2)nc2n(Cc3ccccc3F)ccn12 [GSK2297428]", "Units symbol": "%", "Recorded result": 0}
{"Molecule": "Cc1ccc(NC(=O)Nc2ccc(Cl)cc2)cc1-c1ccc(C(=O)Nc2ccncc2)cc1 [GSK1398472]", "Units symbol": "%", "Recorded result": 34}
{"Molecule": "CC(=O)c1c(C)c2cnc(Nc3ccn(C)n3)nc2n(C2CCCC2)c1=O", "Units symbol": "%", "Recorded result": 8}

Please look at the following molecule next.
# %Inh of `CC(=O)c1c(C)c2cnc(Nc3ccc(N4CCNCC4)cn3)nc2n(C2CCCC2)c1=O` = 0

###

We begin with a simple list: items and their reported %Inh.
- Test system: RSK2(Kin.Dom.1-N-terminal)
- Construct: gene RPS6KA3
- Test settings: concentration: 1 μM, replicates: in singlicate; n = 1
Returns: string containing the number followed by the unit.

Here's what some known entries look like.
{"Compound": "CC(=O)c1c(C)c2cnc(Nc3ccc(N4CCNCC4)cn3)nc2n(C2CCCC2)c1=O", "Recorded result": "0%"}
{"Compound": "CS(=O)(=O)Cc1ccc(Nc2nccc(-c3c(-c4cccc(NC(=O)C5CCCCC5)c4)nn4ncccc34)n2)cc1", "Recorded result": "13%"}
{"Compound": "COc1ccc2cc(-c3nc(-c4ccccc4C(C)C)[nH]c3-c3ccncc3)ccc2c1", "Recorded result": "3%"}
{"Compound": "Cc1ccccc1-c1cc(-c2c[nH]nc2-c2ccccn2)ccn1", "Recorded result": "10%"}

# %Inh of `Cc1nccc(-c2c(-c3ccc(F)cc3)ncn2CCCN2CCOCC2)n1.Cl` = 29%

# %Inh of `CN1c2ccc(-c3ccc(C(N)=O)cc3)cc2-c2[nH]ncc2S1(=O)=O` = 17%

# %Inh of `Nc1cccc(-c2ccc3c(N)n[nH]c3c2)n1` = 3%

###

- System: CDK8
- Test settings: concentration: 1 μM, replicates: in singlicate; n = 1
Readout label: %Inh (%)
Number only, in %; omit the unit.

{"Compound": "Cn1cncc1-c1cc2c(Nc3ccc(OCc4ccccc4)cc3)ncnc2cn1", "Tested system": "CDK8", "Units symbol": "%", "%Inh": 17}
{"Compound": "CC(C)c1cc(-c2ccc3c(N)n[nH]c3c2)nc(N)n1", "Tested system": "CDK8", "Units symbol": "%", "%Inh": 20}
{"Compound": "c1ccc(-c2ccnc3[nH]ccc23)cc1", "Tested system": "CDK8", "Units symbol": "%", "%Inh": 35}
{"Compound": "O=C(Nc1n[nH]c2cc(-c3ccsc3)ccc12)C1CC1", "Tested system": "CDK8", "Units symbol": "%", "%Inh": 0}
{"Compound": "CCc1ccc(-c2ccc3c(c2)-c2n[nH]cc2S(=O)(=O)N3C)cc1", "Tested system": "CDK8", "Units symbol": "%", "%Inh": 6}
{"Compound": "Cc1ccccc1Cn1ccn2c(=O)cc(N3CCOCC3)nc12", "Tested system": "CDK8", "Units symbol": "%", "%Inh": 0}
{"Compound": "CS(=O)(=O)Cc1ccc(Nc2nccc(-c3c(-c4cccc(NC(=O)C5CCCCC5)c4)nn4ncccc34)n2)cc1", "Tested system": "CDK8", "Units symbol": "%", "%Inh": 0}
{"Compound": "COC(=O)C(NC(=O)NC1CCN(c2ccnc(Nc3ccc(F)cc3)n2)C1)c1ccccc1 (stereo not drawn)", "Tested system": "CDK8", "Units symbol": "%", "%Inh": 58}

Please look at the following compound next.
# %Inh of `CN1c2ccc(-c3ccc(C(N)=O)cc3)cc2-c2[nH]ncc2S1(=O)=O` = 28

###

- System: CDK9
- Test settings: concentration: 1 μM, replicates: in singlicate; n = 1
Readout label: %Inh (%)
Number only, in %; omit the unit.

Here's what some known entries look like.
{"Compound": "Cc1c(Cn2c(C)c(C)n3c(=O)cc(N4CCOCC4)nc23)cccc1C(F)(F)F", "Readout label": "%Inh", "Recorded result": 0}
{"Compound": "CC[C@@H]1CO[C@H](C(=O)Nc2ccccc2)CN1c1cc(-c2ccc3c(N)n[nH]c3c2)nc(NC)n1", "Readout label": "%Inh", "Recorded result": 0}
{"Compound": "COc1ccc(Nc2nccc(N3CCC(NC(=O)c4cc5ccccc5s4)C3)n2)cc1 (centres unmarked)", "Readout label": "%Inh", "Recorded result": 2}

# %Inh of `COc1cc2ncnc(Nc3cccc(Br)c3)c2cc1OC.Cl` = 0

# %Inh of `CS(=O)(=O)Cc1ccc(Nc2nccc(-c3c(-c4cccc(NC(=O)C5CCCCC5)c4)nn4ncccc34)n2)cc1` = 0
